- study_system: human IL-21R expressed on cells (human, UniProt Q9HBE5 20-538)
- Sequence (Q9HBE5 20-538): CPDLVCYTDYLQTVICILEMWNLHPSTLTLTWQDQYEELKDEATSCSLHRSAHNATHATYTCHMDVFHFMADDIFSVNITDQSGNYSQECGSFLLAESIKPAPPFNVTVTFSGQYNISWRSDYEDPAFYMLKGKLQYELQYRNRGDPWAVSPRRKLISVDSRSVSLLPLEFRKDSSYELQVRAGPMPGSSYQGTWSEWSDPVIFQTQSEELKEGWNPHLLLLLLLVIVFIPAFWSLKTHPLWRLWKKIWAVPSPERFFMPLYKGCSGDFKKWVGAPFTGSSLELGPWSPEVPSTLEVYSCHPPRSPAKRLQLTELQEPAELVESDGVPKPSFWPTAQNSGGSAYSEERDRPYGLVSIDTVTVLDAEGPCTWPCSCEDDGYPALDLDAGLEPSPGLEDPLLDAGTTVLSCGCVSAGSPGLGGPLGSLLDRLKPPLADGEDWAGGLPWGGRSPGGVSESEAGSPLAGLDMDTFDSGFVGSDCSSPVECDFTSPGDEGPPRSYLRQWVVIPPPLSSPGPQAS
- assay_remarks: cell-based or functional assay
parameter_measured: IC50 Value (nM) ScFv, hBaf3Mu-1 cell proliferation assay

Tell me the measured IC50 Value (nM) ScFv, hBaf3Mu-1 cell proliferation assay of 18A5 scFv (scFv) scFv: QVQLQESGPGLVKTSETLSLTCAVSGYSISSGYYWGWIRQPPGKGLEWIGSISHTGNTYYNPPLKSRVTISVDTSKNQFSLKLSSVTAADTAVYYCARGGGISRPEYWGKGTLVTVSSGGGGSGGGGSGGGGSALSSELTQDPPVSVALGQTVTLTCQGDSLRTYYASWYQQKSGQAPILLLYGKHKRPSGIPDRFSGSTSGDTASLTITGAQAEDEADYYCNSRDSSGNPHVLFGGGTQLTVLS , please.
213 nM

Now try R18 scFv (scFv, also called hIL21R18; scFv R18 clone) scFv: QVQLQESGGGLVQPGGSLRLSCAASGFTFSSYAMSWVRQAPGKGLEWVSGISGSGTSTYYADSVKGRFTISRDNSKNTLYLQMNSLRAEDTAVYYCATHISERPRGAFDIWGRGTMVTVSSGGGGSGGGGSGGGGSALSSELTQDPAVSVALGQTVRITCQGDSLRKYHATWYQQKPRQAPVLVVYGKNRRPSGIPDRFSGSSSGNTASLTITGAQAGDEADYYCNSRDTSGLHYVFGAGTKLTVLG .
473 nM

And the next one, MUF scFv (scFv) scFv: QVQLVQSGAEVKKPGSSVRVSCKASGGTFNIYSVSWVRQAPGQGLEWMGRIIPMRDIANYAQRFQGRVTLTADKSSGTAYMELRGLRSDDTAVYWCATLAGPLDSWGQGTLVTVSSGGGGSGGGGSGGGGSALSSELTQDPAVSVGLGQTVTITCQGGSLRQYYASWYQQKPGQAPVVVIYGKNKRPSGIPDRFSGTTSGNTASLTITGAQAEDEADYYCKSRDSSGNHPLYVFGAGTKLTVLGAAAHHHHHH ?
140 nM

Now try 18G4 scFv (scFv) scFv: EVQLVQSGAEVKKPGSSVKVSCKASGGTFNIYSVSWVRQAPGQGLEWMGRIIPMRDIANYAQRFQGRVTLTADKSSGTAYMELRSLRSDDTAVYWCATLAGPLDSWGRGTLVTVSSGGGGSGGGGSGGGGSALSSELTQDPAVSVALGQTVRITCQGDSLRTYYASWYQKRPGQAPILVMYGRNKRPSGIPDRFSGSFSGNRASLTITGAQAEDEADYYCKSRAYSGNLVEFGGGTKLTVLG .
522 nM

Thanks! And 19F5 scFv (scFv) scFv: EVQLVQSGAEVKKPGASVKVSCKASGYAFTDNYIHWVRQAPGQGLEWMGWINPKTGGTNYAQKFQGRVSMTRDTSINTAYMDLSRLTSDDTAVYYCTRSLSPYGGQLLYWGRGTMVTVSSGGGGSGGGGSGGGGSALSSELTQDPAVSVALGQTVRITCQGDSLRRYYASWFQQKPGQAPVLVIFGKNNRPSGIPDRFSASSSGNTASLTITGAQAEDEADYYCNSRDTSINHPVIFGGGTKLTVLG ?
91 nM
